molecular target: MCL-1 (Homo sapiens (Human), UniProt Q07820, K194A/K197A/R201A); assay: Protein-protein interaction assay MCL-1/Noxa BH3 peptide (MCL-1 assay, TR-FRET); assay type: binding; details: MBP-MCL-1 / Noxa BH3 peptide, median
Sequence (Q07820 whole entry K194A/K197A/R201A, looked up): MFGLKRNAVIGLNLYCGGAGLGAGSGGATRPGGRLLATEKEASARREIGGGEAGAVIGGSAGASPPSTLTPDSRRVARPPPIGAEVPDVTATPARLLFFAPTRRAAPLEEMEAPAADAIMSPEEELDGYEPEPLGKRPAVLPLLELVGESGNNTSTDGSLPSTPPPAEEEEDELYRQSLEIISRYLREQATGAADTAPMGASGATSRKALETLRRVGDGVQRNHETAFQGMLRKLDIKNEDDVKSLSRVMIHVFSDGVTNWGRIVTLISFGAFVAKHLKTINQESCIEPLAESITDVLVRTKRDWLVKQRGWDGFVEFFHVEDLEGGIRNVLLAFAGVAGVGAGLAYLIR
Value type: IC50 (nM)
The reply should contain only the number, in nM.

Compound	IC50 (nM)
CCc1c2c(nn1C)C(N1CCOCC1)CCN(C)S(=O)(=O)CCCn1c(C(=O)O)c(CCCOc3cccc4cc(F)ccc34)c3ccc(Cl)c-2c31 (single isomer, unassigned; enantiomer 2) [Example 71]	0.8

Lab note: next compound to report on.
Task item: Look up IC50 for this compound: CCc1c2c(nn1C)C(CCC1CCOCC1)N(C)S(=O)(=O)CCCn1c(C(=O)O)c(CCCOc3cccc4cc(F)ccc34)c3ccc(Cl)c-2c31 (racemic) [Example 59]
Reply: 1.9

###

target: MCL1 protein (Homo sapiens (Human)); test: PIxEL: protein-protein interaction in permeabilized cells by ELISA (Assay 5); format: cell-based; conditions: permeabilized RKO cells, Biotin-BIM peptide 0.2 μM, serum free; median
Sequence (Q07820 whole entry): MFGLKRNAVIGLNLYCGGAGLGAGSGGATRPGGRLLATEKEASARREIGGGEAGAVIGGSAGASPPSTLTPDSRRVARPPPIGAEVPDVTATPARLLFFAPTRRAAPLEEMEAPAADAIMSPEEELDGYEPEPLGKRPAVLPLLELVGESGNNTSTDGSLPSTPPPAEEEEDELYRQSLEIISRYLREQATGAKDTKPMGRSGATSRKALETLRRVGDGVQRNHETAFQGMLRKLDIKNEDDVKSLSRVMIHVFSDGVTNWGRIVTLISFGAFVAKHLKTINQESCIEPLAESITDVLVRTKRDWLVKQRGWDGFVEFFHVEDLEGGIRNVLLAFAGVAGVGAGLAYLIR
Mark 1.0 for IC50 under 30 nM, 0.0 if at or over.

The examples below pair each entry with its known result.
Molecule	Class name
Cc1c2c(nn1C)C(CCN1CCOCC1)N(C)S(=O)(=O)CCCn1c(C(=O)O)c(CCCOc3cccc4cc(F)ccc34)c3ccc(Cl)c-2c31 (single isomer, unassigned; enantiomer 2) [Example 67]	1.0
CCc1c2c(nn1C)CN(C)S(=O)(=O)CCCn1c(C(=O)O)c(CCCOc3cccc4cc(F)ccc34)c3ccc(Cl)c-2c31 (single isomer, unassigned; enantiomer 1)	0.0
Cc1c2c(nn1C)CN(C1CC1)S(=O)(=O)CCCn1c(C(=O)O)c(CCCOc3cccc4ccccc34)c3ccc(Cl)c-2c31	0.0
CCc1c2c(nn1C)C(CCC1CCOCC1)N(C)S(=O)(=O)CCCn1c(C(=O)O)c(CCCOc3cccc4cc(F)ccc34)c3ccc(Cl)c-2c31 (single isomer, unassigned; enantiomer 1) [Example 61]	1.0
CCc1c2c(nn1C)C(CCC1CCOCC1)N(C)S(=O)(=O)CCCn1c(C(=O)O)c(CCCOc3cccc4cc(F)ccc34)c3ccc(Cl)c-2c31 (single isomer, unassigned; enantiomer 3) [Example 63]	1.0

Could you now consider this next molecule?
Task item: Bench note: check whether CCc1c2c(nn1C)CN(C1CC1)S(=O)(=O)CCCn1c(C(=O)O)c(CCCOc3cccc4cc(F)ccc34)c3ccc(Cl)c-2c31 (racemic) [Example 53] shows IC50 below 30 nM
Reply: 0.0

###

# maps each entry to its IC50
target: BCL-XL (Homo sapiens (Human)); assay: Protein-protein interaction assay BCL-XL/Bad BH3 peptide (BCL-XL assay, TR-FRET); assay type: binding; details: His-BCL-XL / Bad BH3 peptide, median
Sequence (Q07817 other isoform, or with tags, fused parts or gaps): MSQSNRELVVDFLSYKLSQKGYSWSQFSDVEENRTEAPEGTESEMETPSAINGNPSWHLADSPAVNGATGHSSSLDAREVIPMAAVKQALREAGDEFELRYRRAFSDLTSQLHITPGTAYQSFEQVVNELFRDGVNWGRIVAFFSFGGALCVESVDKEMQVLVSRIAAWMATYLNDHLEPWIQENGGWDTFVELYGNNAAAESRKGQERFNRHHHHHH

Example entries begin here.
Molecule	Target entity	Result value
Cc1c2c(nn1C)CN(C)S(=O)(=O)CCCn1c(C(=O)O)c(CCCOc3cccc4ccccc34)c3ccc(F)c-2c31 (racemic)	BCL-XL (Homo sapiens (Human))	> 20 µM
Cc1c2c(nn1C)CN(C)S(=O)(=O)CCCn1c(C(=O)O)c(CCCOc3cccc4c3CCCC4)c3ccc(F)c-2c31 (racemic)	BCL-XL (Homo sapiens (Human))	> 20 µM
Cc1c2c(nn1C)CNS(=O)(=O)CCCn1c(C(=O)O)c(CCCOc3cccc4cc(F)ccc34)c3ccc(Cl)c-2c31 (single isomer, unassigned; enantiomer 2) [Example 52]	BCL-XL (Homo sapiens (Human))	16 µM

Task item: State the recorded IC50 for this entry: CCc1c2c(nn1C)CN(C)S(=O)(=O)CCCn1c(C(=O)O)c(CCCOc3ccc(F)c4ccccc34)c3ccc(Cl)c-2c31
Reply: > 20 µM

Task item: Would you kindly share the measured IC50 for CCc1c2c(nn1C)CN(CCN1CCOCC1)S(=O)(=O)CCCn1c(C(=O)O)c(CCCOc3cccc4cc(F)ccc34)c3ccc(Cl)c-2c31 ?
Reply: > 20 µM

Task item: Using the record for CCc1c2c(nn1C)CN(C)S(=O)(=O)CCCn1c(C(=O)O)c(CCCOc3cccc4c3CCCC4)c3ccc(F)c-2c31 (racemic) , report its IC50.
Reply: > 20 µM

Task item: Please give the measured IC50 for this molecule: CCc1c2c(nn1C)CN(C)S(=O)(=O)CCCn1c(C(=O)O)c(CCCOc3cccc4c3CCC4)c3ccc(F)c-2c31 (racemic)
Reply: > 20 µM

Task item: Which IC50 is reported for this molecule? Cc1c2c(nn1C)CN(C)S(=O)(=O)CCCn1c(C(=O)O)c(CCCOc3cccc4ccccc34)c3ccc(Cl)c-2c31 (racemic) [Example 4]
Reply: > 20 µM

Task item: Can you look up the measured IC50 of Cc1cc(OCCCc2c(C(=O)O)n3c4c(c(F)ccc24)-c2c(nn(C)c2C)CN(C)S(=O)(=O)CCC3)cc(C)c1Cl (racemic) for me?
Reply: > 20 µM
